Task for the reader: assign each of the following compounds its reported MIC.
Test system: A. baumannii KAB1544 and efflux overexpression mutants
assay: Broth microdilution MIC, isogenic A. baumannii overexpression efflux mutants
Assay type: cell-based
condition.details: Acinetobacter baumannii, AdeR P116L; AdeABC overexpressed; read-out: MIC
Numbers only, in µg/mL.

>>> result_value("CNC(C)C1CCC(N)C(OC2C(N)CC(N)C(OC3OCC(C)(O)C(NC)C3O)C2O)O1 (stereo not shown) [gentamicin]")
16
>>> result_value("CC1=C[C@@H]2CN(C(=O)N2OS(=O)(=O)O)[C@@H]1C(N)=O [durlobactam]")
64
>>> result_value("CC1(C)[C@H](C(=O)O)N2C(=O)C[C@H]2S1(=O)=O [sulbactam]")
1

Next item in the queue.
The compound C[C@@H](O)[C@H]1C(=O)N2C(C(=O)O)=C(SCCN=CN)C[C@H]12 [imipenem] showed MIC equal to 0.5

###

Task for the reader: assign each of the following compounds its reported MIC.
Test system: A. baumannii clinical isolates
assay: microbe, parasite or virus in culture
Type: cell-based
condition.details: Acinetobacter baumannii, isolate ARC7014 (IHMA 2045328), Guatemala, IAI, 2019, read-out: MIC
Experimental: The following report describes the genomic analysis of these isolates for likely resistance mechanisms. Biochemical analysis of purified PBP3 and phenotypic analyses of both clinical and isogenic strains were also conducted to determine the relative impact of key resistance determinants to SUL-DUR antibacterial activity. […]
Answers are plain numbers, in µg/mL.

Examples with answers:
>>> result_value("CC1(C)[C@H](C(=O)O)N2C(=O)C[C@H]2S1(=O)=O")
64
>>> result_value("CN(C)c1cc(NC(=O)CNC(C)(C)C)c(O)c2c1C[C@H]1C[C@H]3[C@H](N(C)C)C(O)=C(C(N)=O)C(=O)[C@@]3(O)C(O)=C1C2=O")
1

Next item in the queue.
The compound C[C@@H](O)[C@H]1C(=O)N2C(C(=O)O)=C(SCCN=CN)C[C@H]12 showed MIC equal to 64

###

Task for the reader: assign each of the following compounds its reported MIC.
Tested on: isogenic A. baylyi ADP1 panel encoding wildtype or mutant PBP3
assay: Broth microdilution MIC, isogenic A. baylyi panel (PBP3 variants with or without overexpressed β-lactamases)
Format: cell-based
condition.details: Acinetobacter baylyi, A. baylyi; PBP3 Wildtype; β-lactamase None (empty vector); read-out: MIC
Answers are plain numbers, in µg/mL.

>>> result_value("C[C@@H](O)[C@H]1C(=O)N2C(C(=O)O)=C(SCCN=CN)C[C@H]12")
0.03
>>> result_value("CC1(C)[C@H](C(=O)O)N2C(=O)C[C@H]2S1(=O)=O")
4
>>> result_value("C[C@@H](O)[C@H]1C(=O)N2C(C(=O)O)=C(S[C@@H]3CN[C@H](C(=O)N(C)C)C3)[C@H](C)[C@H]12")
0.06

Next item in the queue.
The compound C[C@H]1[C@H](NC(=O)/C(=N\OC(C)(C)C(=O)O)c2csc(N)n2)C(=O)N1S(=O)(=O)O showed MIC equal to 32

###

Tested on: A. baumannii AB5075 and transposon mutants in efflux genes
assay: Broth microdilution MIC, isogenic A. baumannii transposon mutants in efflux genes
Type: cell-based
condition.details: adeT::tn in AB5075; tested in duplicate
Method: To further assess the role of efflux in SUL-DUR activity against Acinetobacter spp., two panels of A. baumannii isogenic strains were tested. The first consisted of 7 members of an A. baumannii transposon library ([28]) with single gene disruptions in the adeABC, adeIJK, or adeT loci as compared to the parent strain, AB5075. […] The parent and each isogenic mutant strain in both panels was measured for susceptibility to sulbactam, durlobactam, SUL-DUR, imipenem, and gentamicin. […]
Task for the reader: assign each of the following molecules its reported In vitro activity (MIC).
Numbers only, in µg/mL.

Examples with answers:
>>> result_value("C[C@@H](O)[C@H]1C(=O)N2C(C(=O)O)=C(SCCN=CN)C[C@H]12")
8
>>> result_value("CC1=C[C@@H]2CN(C(=O)N2OS(=O)(=O)O)[C@@H]1C(N)=O")
128

Next item in the queue.
The molecule CC1(C)[C@H](C(=O)O)N2C(=O)C[C@H]2S1(=O)=O showed In vitro activity (MIC) equal to 64

Just for reference, paper PMC10648852 is where these values come from.
